Protocol text: Pharmacokinetics study of KDG-0271 in male CD1 mice (Example 4)
Format: in vivo
Settings: mouse, plasma, 50 mg/kg PO
Readout label: half-life (min)
Give bare numbers, in min.

State, in one line, measured half-life of Cc1n[nH]c2c1C(c1cc(C#CC3CN(C(=O)OC(C)(C)C)C3)cc(CO)c1)(C(C)C)C(C#N)=C(N)O2 (stereo not shown)
51.1

###

Protocol text: Pharmacokinetics study of KDG-0388 in male CD1 mice (Example 2)
Type: in vivo
Settings: mouse; male CD1 mice, plasma, 200 mg/kg PO, 1 h; read-out: Concentration PO_Mean
Readout label: concentration at 1 h

Read the entry Cc1n[nH]c2c1C(c1cc(C#C[C@H]3C[C@@H](NC(=O)OC(C)(C)C)C3)cc(CO)c1)(C(C)C)C(C#N)=C(N)O2 (stereo partly shown) and write its reported concentration at 1 h.
475 ng/mL

###

Protocol text: Pharmacokinetics study of KDG-0320-0A in male CD1 mice (Example 1)
Assay type: in vivo
Settings: mouse, plasma, 1 mg/kg IV, 0.5 h, read-out: Concentration IV_Mean
Structures can show the parent of a compound that is named as a salt.
Readout label: concentration at 0.5 h (ng/mL)
Give bare numbers, in ng/mL.

Give the value of concentration at 0.5 h reported for the following: Cc1n[nH]c2c1C(c1cc(C#C[C@H]3CC[C@H](NC(=O)OC(C)(C)C)CC3)cc(CO)c1)(C(C)C)C(C#N)=C(N)O2 (stereo partly shown) [KDG-0320, hydrochloride]
60.2

###

Protocol text: Pharmacokinetics study of KDG-0271 in male CD1 mice (Example 4)
Assay type: in vivo
Settings: mouse, plasma, 30 mg/kg IP, 0.5 h, read-out: Concentration IP_Mean
Readout label: concentration at 0.5 h (ng/mL)
Answers are plain numbers, in ng/mL.

Supply concentration at 0.5 h value. Item: Cc1n[nH]c2c1C(c1cc(C#CC3CN(C(=O)OC(C)(C)C)C3)cc(CO)c1)(C(C)C)C(C#N)=C(N)O2 (stereo not shown)
2420

###

Protocol text: Pharmacokinetics study of KDG-0320-0A in male CD1 mice (Example 1)
Type: in vivo
Settings: mouse, plasma, 1 mg/kg IV
Counter-ions that a name gives are not always drawn.
Readout label: C0

Tell me measured C0 for Cc1n[nH]c2c1C(c1cc(C#C[C@H]3CC[C@H](NC(=O)OC(C)(C)C)CC3)cc(CO)c1)(C(C)C)C(C#N)=C(N)O2 (stereo partly shown) [KDG-0320, hydrochloride] please.
575 ng/mL

###

Protocol text: Mouse liver microsome assay (metabolic stability)
Assay type: in vitro ADME
Settings: mouse liver microsomes, in vitro intrinsic clearance; read-out: Relative Clint
Where a name gives a salt, the structure may show the parent alone.
Readout label: microsomal CLint at 2 µM

{"Compound": "Cc1n[nH]c2c1C(c1cc(C#CC3CN(C(=O)NC(C)(C)C)C3)cc(CO)c1)(C(C)C)C(C#N)=C(N)O2 (stereo not drawn) [KDG-0412]", "Measured": "70 to 100 µL/min/mg"}
{"Compound": "Cc1n[nH]c2c1C(c1cc(C#C[C@H]3CC[C@H](NC(=O)OC(C)(C)C)CC3)cc(CO)c1)(C(C)C)C(C#N)=C(N)O2 (stereo partly drawn) [KDG-0320, hydrochloride]", "Measured": "≤ 70 µL/min/mg"}
{"Compound": "Cc1n[nH]c2c1C(c1cc(C#CC3(C)CCN(C(=O)OC(C)(C)C)CC3)cc(CO)c1)(C(C)C)C(C#N)=C(N)O2 (stereo not drawn) [KDG-0296]", "Measured": "100 to 250 µL/min/mg"}
{"Compound": "Cc1c[nH]c2c1C(c1cc(CO)cc(-c3ccc(C4CN(C(=O)OC(C)(C)C)C4)cc3)c1)(C(C)C)C(C#N)=C(N)O2 (stereo not drawn) [KDG-0453]", "Measured": "70 to 100 µL/min/mg"}
{"Compound": "Cc1n[nH]c2c1C(c1cc(C#CC3CCCN3C(=O)OC(C)(C)C)cc(CO)c1)(C(C)C)C(C#N)=C(N)O2 (stereo not drawn) [KDG-0280]", "Measured": "> 250 µL/min/mg"}

Note: attention shifts to another entry.
Please indicate microsomal CLint at 2 µM recorded for Cc1n[nH]c2c1C(c1cc(C#CC34CC(NC(=O)OC(C)(C)C)(C3)C4)cc(CO)c1)(C(C)C)C(C#N)=C(N)O2 (stereo not drawn) [KDG-0502]
≤ 70 µL/min/mg
